target: human recombinant ghrelin receptor (GHS-R1a) (Homo sapiens, UniProt Q92847); construct: host or cells: CHO-K1; experiment: Calcium assay, CHO-K1 cells expressing hGHS-R1a (Fluo-4); assay type: cell-based; settings: CHO-K1, relative to the Emax induced by MK-0677 (defined as 100%); read-out: hGHS-R1a Ca assay Emax/%
Sequence (Q92847 whole entry): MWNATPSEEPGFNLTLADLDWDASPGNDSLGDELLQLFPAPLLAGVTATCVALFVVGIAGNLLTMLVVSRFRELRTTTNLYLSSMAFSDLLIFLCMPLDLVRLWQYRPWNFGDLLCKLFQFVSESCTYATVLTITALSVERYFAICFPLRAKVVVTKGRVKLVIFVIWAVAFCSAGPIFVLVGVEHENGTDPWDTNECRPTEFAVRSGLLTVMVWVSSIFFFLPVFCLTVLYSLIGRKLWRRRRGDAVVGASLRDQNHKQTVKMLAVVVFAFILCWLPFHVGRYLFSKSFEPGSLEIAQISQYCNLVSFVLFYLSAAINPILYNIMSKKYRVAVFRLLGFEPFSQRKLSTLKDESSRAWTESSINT
recordedMetric: Emax

Reference set, count: 5
> print(dat)
                                   compound  recordedmetric  testresult
1  CN1CC(c2ccccc2)C2(CCCN(C(=O)[C@@H](COCc3ccccc3)NC(=O)C(C)(C)N)C2)C1=O (single isomer, unassigned)            Emax         99%
2  CN1C[C@@H](c2ccc(F)cc2)[C@@]2(CCCN(C(=O)[C@@H](COCc3ccccc3)NC(=O)C(C)(C)N)C2)C1=O            Emax         89%
3  CN1CC(c2ccc(F)cc2)C2(CCCN(C(=O)[C@@H](COCc3ccc(Cl)cc3)NC(=O)C(C)(C)N)C2)C1=O (single isomer, unassigned)            Emax         84%
4  CC(C)N1CC(c2ccccc2)C2(CCCN(C(=O)[C@@H](COCc3ccccc3)NC(=O)C(C)(C)N)C2)C1=O (single isomer, unassigned)            Emax         96%
5  CC(C)(C)CN1CC(c2ccccc2)C2(CCCN(C(=O)[C@@H](COCc3ccccc3)NC(=O)C(C)(C)N)C2)C1=O (some centres unmarked) [Example 1.75]            Emax         87%

Prompt line: Provide measured Emax on human recombinant ghrelin receptor (GHS-R1a) (Homo sapiens, UniProt Q92847) for C[C@H](OCc1ccccc1)[C@@H](NC(=O)C(C)(C)N)C(=O)N1CCCC2(C1)C(=O)N(C)CC2c1ccccc1 (single isomer, unassigned) please.
Response line: 107%

Prompt line: Please look at CN1CC(c2ccccc2)C2(CCCN(C(=O)[C@@H](CCCc3ccccc3)NC(=O)C(C)(C)N)C2)C1=O (single isomer, unassigned) and tell me its recorded Emax on human recombinant ghrelin receptor (GHS-R1a) (Homo sapiens, UniProt Q92847).
Response line: 103%

Prompt line: State recorded Emax with human recombinant ghrelin receptor (GHS-R1a) (Homo sapiens, UniProt Q92847), entry Cc1ccc(C2CN(C)C(=O)C23CCCN(C(=O)[C@@H](COCc2ccccc2)NC(=O)C(C)(C)N)C3)cc1 (single isomer, unassigned) , no comment.
Response line: 89%

====

target: human recombinant ghrelin receptor (GHS-R1a) (Homo sapiens, UniProt Q92847); construct: host or cells: CHO-K1; experiment: cAMP assay (HTRF), CHO-hGHS-R1a cells; format: cell-based; conditions: relative to the ghrelin response (defined as 100%)
Lab note: compare Emax with 200%, writing YES if less and NO if equal or more.

Consider the worked cases shown below.
> print(dat)
                                   compound  assignedlabel
1  CN1CC(c2ccc(F)cc2)C2(CCCN(C(=O)[C@@H](COCc3ccc(Cl)cc3)NC(=O)C(C)(C)N)C2)C1=O (single isomer, unassigned)            YES
2  COc1ccc(C2CN(C)C(=O)C23CCCN(C(=O)[C@@H](COCc2ccccc2)NC(=O)C(C)(C)N)C3)cc1 (some centres unmarked)            YES
3  CN1CC(c2ccccc2)C2(CCCN(C(=O)[C@@H](CCCc3ccccc3)NC(=O)C(C)(C)N)C2)C1=O (single isomer, unassigned)            YES

Prompt line: Is 200% strictly greater than the compound's reported Emax? compound: Cc1ccc(C2CN(C)C(=O)C23CCCN(C(=O)[C@@H](COCc2ccccc2)NC(=O)C(C)(C)N)C3)cc1 (single isomer, unassigned)
Response line: NO

====

target: human recombinant ghrelin receptor (GHS-R1a) (Homo sapiens); construct: host or cells: CHO-K1; assay: cAMP assay (HTRF), CHO-hGHS-R1a cells; type: cell-based; settings: relative to the ghrelin response (defined as 100%)
recordedMetric: Emax (%)
Give the value in % but do not write % after it.

Examples with answers:
> print(dat)
                                   molecule  testresult
1  CC(C)N1CC(c2ccccc2)C2(CCCN(C(=O)[C@@H](COCc3ccccc3)NC(=O)C(C)(C)N)C2)C1=O (single isomer, unassigned)         195
2  CN1CC(c2ccccc2)C2(CCCN(C(=O)[C@@H](COCc3ccccc3)NC(=O)C(C)(N)C(F)(F)F)C2)C1=O (stereo partly shown)           1
3  CC(C)N1CC(c2ccc(F)cc2)C2(CCCN(C(=O)[C@@H](Cc3cn(C)c4ccccc34)NC(=O)C(C)(C)N)C2)C1=O (single isomer, unassigned)         331

Prompt line: Fill in reported Emax for this entry: CC(C)(C)CN1CC(c2ccccc2)C2(CCCN(C(=O)[C@@H](COCc3ccccc3)NC(=O)C(C)(C)N)C2)C1=O (stereo partly shown) [Example 1.75]
Response line: 176
